tested on: mouse plasma proteins; experiment: Plasma protein binding by equilibrium dialysis, mouse plasma; format: in vitro ADME; conditions: fraction unbound
Result type: Mouse Plasma Protein Binding Fu ± SD
Give a plain numeric answer without units written out.

Completed entries (count: 2):
COCCOC(=O)NC(C(=O)NC(Cc1ccccc1)C(O)CN(Cc1ccc(-c2ccccn2)cc1)NC(=O)C(NC(=O)OC)C(C)(C)C)C(C)(C)C (stereo not shown) :: 0.0666
COCCOCCOCCOCCOCCOCCOC(=O)NC(C(=O)NC(Cc1ccccc1)C(O)CN(Cc1ccc(-c2ccccn2)cc1)NC(=O)C(NC(=O)OC)C(C)(C)C)C(C)(C)C (stereo not shown) :: 0.159

Query string: Param readout = Mouse Plasma Protein Binding Fu ± SD; param system = mouse plasma proteins; param query = COCCOCCOCCOCCOCCOC(=O)NC(C(=O)NC(Cc1ccccc1)C(O)CN(Cc1ccc(-c2ccccn2)cc1)NC(=O)C(NC(=O)OC)C(C)(C)C)C(C)(C)C (stereo not shown) ; response: value
Result string: 0.217

Query string: Param readout = Mouse Plasma Protein Binding Fu ± SD; param system = mouse plasma proteins; param query = COCCOCCOCCOCCOCCOCCOCCOC(=O)NC(C(=O)NC(Cc1ccccc1)C(O)CN(Cc1ccc(-c2ccccn2)cc1)NC(=O)C(NC(=O)OC)C(C)(C)C)C(C)(C)C (stereo not shown) ; response: value
Result string: 0.174

----------
biological target: UniProt:P11712; conditions: microsomes
Sequence (P11712 whole entry): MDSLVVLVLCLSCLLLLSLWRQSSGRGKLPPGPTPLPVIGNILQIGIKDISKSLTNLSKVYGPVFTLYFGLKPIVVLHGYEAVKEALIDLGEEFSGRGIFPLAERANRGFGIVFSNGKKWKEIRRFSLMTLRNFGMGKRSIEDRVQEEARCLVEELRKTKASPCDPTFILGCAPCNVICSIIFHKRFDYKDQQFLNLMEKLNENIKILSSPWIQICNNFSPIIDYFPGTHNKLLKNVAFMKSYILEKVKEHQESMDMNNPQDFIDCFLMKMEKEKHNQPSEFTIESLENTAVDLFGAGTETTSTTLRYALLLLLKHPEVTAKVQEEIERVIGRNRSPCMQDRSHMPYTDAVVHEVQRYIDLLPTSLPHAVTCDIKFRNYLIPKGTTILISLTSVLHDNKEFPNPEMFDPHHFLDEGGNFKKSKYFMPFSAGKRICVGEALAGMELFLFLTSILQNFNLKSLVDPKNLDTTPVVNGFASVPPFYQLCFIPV
Result type: IC50

Completed entries (count: 3):
COCCOCCOCCOCCOCCOC(=O)NC(C(=O)NC(Cc1ccccc1)C(O)CN(Cc1ccc(-c2ccccn2)cc1)NC(=O)C(NC(=O)OC)C(C)(C)C)C(C)(C)C (stereo not shown) :: 23.7 µM
COCCOCCOCCOCCOCCOCCOCCOC(=O)NC(C(=O)NC(Cc1ccccc1)C(O)CN(Cc1ccc(-c2ccccn2)cc1)NC(=O)C(NC(=O)OC)C(C)(C)C)C(C)(C)C (stereo not shown) :: > 25 µM
COCCOC(=O)NC(C(=O)NC(Cc1ccccc1)C(O)CN(Cc1ccc(-c2ccccn2)cc1)NC(=O)C(NC(=O)OC)C(C)(C)C)C(C)(C)C (stereo not shown) :: > 25 µM

Query string: Data request, read-out IC50, for COCCOCCOCCOCCOCCOCCOC(=O)NC(C(=O)NC(Cc1ccccc1)C(O)CN(Cc1ccc(-c2ccccn2)cc1)NC(=O)C(NC(=O)OC)C(C)(C)C)C(C)(C)C (stereo not shown)
Result string: > 25 µM

----------
Reported A→B, ×10^−6 by item:
system: Caco-2 cells; assay: in vitro; conditions: human, Caco-2

COC(=O)N[C@H](C(=O)N[C@@H](Cc1ccccc1)[C@@H](O)CN(Cc1ccc(-c2ccccn2)cc1)NC(=O)[C@@H](NC(=O)OC)C(C)(C)C)C(C)(C)C [Atazanavir, reference compound] :: 2.04 cm/s

Query string: Data request, read-out A→B, ×10^−6, for COCCOCCOCCOCCOCCOC(=O)NC(C(=O)NC(Cc1ccccc1)C(O)CN(Cc1ccc(-c2ccccn2)cc1)NC(=O)C(NC(=O)OC)C(C)(C)C)C(C)(C)C (stereo not shown) [mono-mPEG5-Atazanavir]
Result string: 0.12 cm/s

Query string: Data request, read-out A→B, ×10^−6, for COCCOC(=O)NC(C(=O)NC(Cc1ccccc1)C(O)CN(Cc1ccc(-c2ccccn2)cc1)NC(=O)C(NC(=O)OC)C(C)(C)C)C(C)(C)C (stereo not shown) [mono-mPEG1-Atazanavir]
Result string: 1.25 cm/s

Query string: Data request, read-out A→B, ×10^−6, for COCCOCCOCCOCCOCCOCCOC(=O)NC(C(=O)NC(Cc1ccccc1)C(O)CN(Cc1ccc(-c2ccccn2)cc1)NC(=O)C(NC(=O)OC)C(C)(C)C)C(C)(C)C (stereo not shown) [mono-mPEG6-Atazanavir]
Result string: 0.11 cm/s

Query string: Data request, read-out A→B, ×10^−6, for COCCOCCOCCOCCOCCOC(=O)N[C@@H](C(=O)NC(Cc1ccccc1)[C@@H](O)CN(Cc1ccc(-c2ccccn2)cc1)NC(=O)[C@H](NC(=O)OCCOCCOCCOCCOCCOC)C(C)(C)C)C(C)(C)C (stereo partly shown) [di-mPEG5-Atazanavir]
Result string: 0.06 cm/s

Query string: Data request, read-out A→B, ×10^−6, for COCCOCCOCCOCCOCCOCCOCCOC(=O)NC(C(=O)NC(Cc1ccccc1)C(O)CN(Cc1ccc(-c2ccccn2)cc1)NC(=O)C(NC(=O)OC)C(C)(C)C)C(C)(C)C (stereo not shown) [mono-mPEG7-Atazanavir]
Result string: 0.10 cm/s

Query string: Data request, read-out A→B, ×10^−6, for COCCOCCOCCOCCOCCOCCOCCOC(=O)N[C@@H](C(=O)NC(Cc1ccccc1)[C@@H](O)CN(Cc1ccc(-c2ccccn2)cc1)NC(=O)[C@H](NC(=O)OCCOCCOCCOCCOCCOCCOCCOC)C(C)(C)C)C(C)(C)C (stereo partly shown) [di-mPEG7-Atazanavir]
Result string: 0.06 cm/s

----------
test system: HIV-1Ba-L; assay: Anti-HIV-1 activity in monocyte-derived dendritic cells (reverse transcriptase activity); assay type: cell-based; settings: dendritic cells, first determination; read-out: EC50 First
Reported EC50 by item:
Kindly answer with a numeric value in nM, unit omitted.

Completed entries (count: 2):
COCCOCCOCCOc1ccc(C[C@H](NC(=O)O[C@H]2CO[C@H]3OCC[C@H]32)C(O)CN(CC(C)C)S(=O)(=O)c2ccc(N)cc2)cc1 (stereo partly drawn) :: 0.17
COCCOCCOCCOCCOCCOCCOCCOC(=O)NC(C(=O)NC(Cc1ccccc1)C(O)CN(Cc1ccc(-c2ccccn2)cc1)NC(=O)C(NC(=O)OC)C(C)(C)C)C(C)(C)C (stereo not drawn) :: 0.13

Now look at this entry.
Query string: Param readout = EC50; param system = HIV-1Ba-L; param query = COCCOCCOCCOCCOCCOCCOCCNc1ccc(S(=O)(=O)N(CC(C)C)CC(O)[C@H](Cc2ccccc2)NC(=O)O[C@H]2CO[C@H]3OCC[C@H]32)cc1 (stereo partly drawn) ; response: value
Result string: 70

----------
test: in vitro; type: in vitro ADME; settings: dog, microsomes
Reported half-life by item:
Dear colleague, please send the value followed by its unit.

COC(=O)N[C@H](C(=O)N[C@@H](Cc1ccccc1)[C@@H](O)CN(Cc1ccc(-c2ccccn2)cc1)NC(=O)[C@@H](NC(=O)OC)C(C)(C)C)C(C)(C)C [Atazanavir, reference compound] :: 51.8 min

Now look at this entry.
Query string: Data request, read-out half-life, for COCCOCCOCCOC(=O)NC(C(=O)NC(Cc1ccccc1)C(O)CN(Cc1ccc(-c2ccccn2)cc1)NC(=O)C(NC(=O)OC)C(C)(C)C)C(C)(C)C (centres unmarked) [mono-mPEG3-Atazanavir]
Result string: 7.42 min

----------
system: CEM-SS cells; assay: CEM-SS macromolecule synthesis (tritiated precursor incorporation); assay type: cell-based; details: RNA synthesis
Reported Uridine incorporation (CEM-SS) TC50 by item:
Kindly answer with a numeric value in µM, unit omitted.

COC(=O)N[C@H](C(=O)N[C@@H](Cc1ccccc1)[C@@H](O)CN(Cc1ccc(-c2ccccn2)cc1)NC(=O)[C@@H](NC(=O)OC)C(C)(C)C)C(C)(C)C [Atazanavir, reference compound] :: 281.4

Now look at this entry.
Query string: Data request, read-out Uridine incorporation (CEM-SS) TC50, for COCCOCCOCCOC(=O)NC(C(=O)NC(Cc1ccccc1)C(O)CN(Cc1ccc(-c2ccccn2)cc1)NC(=O)C(NC(=O)OC)C(C)(C)C)C(C)(C)C (centres unmarked) [mono-mPEG3-Atazanavir]
Result string: 396.6

----------
test system: HIV-1 HT/92/599; assay: HIV-1 reverse transcriptase activity after infection of fresh human PBMCs; type: cell-based; conditions: read-out: PBMC/HIV-1HT/92/599 EC50 ± SD; seven days, reverse transcriptase activity
Result type: EC50 (nM)
Kindly answer with a numeric value in nM, unit omitted.

Completed entries (count: 2):
COCCOCCOCCOCCOCCOCCOCCNc1ccc(S(=O)(=O)N(CC(C)C)CC(O)[C@H](Cc2ccccc2)NC(=O)O[C@H]2CO[C@H]3OCC[C@H]32)cc1 (stereo partly drawn) :: 73
COCCOCCOCCOCCOCCOc1ccc(C[C@H](NC(=O)O[C@H]2CO[C@H]3OCC[C@H]32)C(O)CN(CC(C)C)S(=O)(=O)c2ccc(N)cc2)cc1 (stereo partly drawn) :: 90

Now look at this entry.
Query string: Data request, read-out EC50, for COCCOCCOCCOCCOCCOCCOCCOC(=O)NC(C(=O)NC(Cc1ccccc1)C(O)CN(Cc1ccc(-c2ccccn2)cc1)NC(=O)C(NC(=O)OC)C(C)(C)C)C(C)(C)C (stereo not drawn)
Result string: 163

----------
Reported XTT (PBMC) TC50 by item:
tested on: PBMCs; assay: PBMC cytotoxicity (XTT); type: cell-based, human; conditions: 7 days

Completed entries (count: 2):
C[S+](C)[O-] [DMSO, reference compound] :: >2.0%
COCCOCCOCCOc1ccc(C[C@H](NC(=O)O[C@H]2CO[C@H]3OCC[C@H]32)C(O)CN(CC(C)C)S(=O)(=O)c2ccc(N)cc2)cc1 (stereo partly drawn) :: >400.0 µM

Now look at this entry.
Query string: Param readout = XTT (PBMC) TC50; param system = PBMCs; param query = COCCOCCOCCOCCOCCOc1ccc(C[C@H](NC(=O)O[C@H]2CO[C@H]3OCC[C@H]32)C(O)CN(CC(C)C)S(=O)(=O)c2ccc(N)cc2)cc1 (stereo partly drawn) ; response: value
Result string: >400.0 µM

Attribution: patent US10806794B2
